# SYSTEM: UniProtKB Q9KCR8
# Sequence (Q9KCR8 1-274): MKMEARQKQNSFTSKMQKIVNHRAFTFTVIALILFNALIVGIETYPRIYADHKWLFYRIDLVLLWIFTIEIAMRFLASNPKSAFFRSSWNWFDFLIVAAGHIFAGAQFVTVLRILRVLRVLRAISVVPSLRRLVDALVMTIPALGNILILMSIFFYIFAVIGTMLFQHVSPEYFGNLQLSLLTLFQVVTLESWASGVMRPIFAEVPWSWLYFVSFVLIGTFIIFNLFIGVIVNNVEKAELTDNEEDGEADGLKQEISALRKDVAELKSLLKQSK
# Format: cell-based
pIC50: −log10 of the molar value.
Exercise: for every item that follows, state its recorded pIC50.

Exercise: Report pIC50 for `CCN(CC)CC(=O)Nc1c(C)cccc1C` please.
Key: ~3.59

Exercise: Fill in: pIC50 of COc1ccccc1OCC(O)CN1CCN(CC(=O)Nc2c(C)cccc2C)CC1 (centres unmarked) is ___
Key: ~4.22
